Measurement Target: HLA-DR DRB1*0701 (human)
Experiment Description: radioligand inhibition, purified HLA-DR
pIC50: −log10 of the molar value.
Observation Type: pIC50

[[record]]
binder = "SEGGLVENHVDSTMN [Peptide 9019.0183]"
meas_value = 5.34

[[record]]
binder = "ELPLQALVMGEGTCE [Peptide 9019.0182]"
meas_value = 4.81

